- method summary: Caco-2 Permeability Assay
- Assay type: in vitro ADME
- measurement parameters: human, Caco-2, test compound 3 μM
Response field label: string, one of Met (Papp at 2 h, 3 µM strictly below 20 ×10⁻⁶ cm/s) or Not met.

Some solved entries appear below for comparison.
CC(C)(O)CCc1cn(-c2cnc(-n3ncc4cc(C#N)cnc43)cc2NC2CC(F)(F)C2)nn1 [Example 367] : Met
CC(=O)N1CC[C@@H](c2cc(-c3cnc(-n4ncc5cc(C#N)cnc54)cc3NC(C)C)on2)C1 [Example 406] : Met
CC(C)Nc1cc(-n2ncc3cc(C#N)cnc32)ncc1-c1cn([C@H]2CCCC[C@H]2O)nn1 [Example 216] : Met

query: Record CC(=O)N1CCC[C@@H]1c1cc(-c2cnc(-n3ncc4cc(C#N)cnc43)cc2NC(C)C)on1 [Example 417] : is its Papp at 2 h, 3 µM strictly below 20 ×10⁻⁶ cm/s?
result: Not met

###

- method summary: Caco-2 Permeability Assay
- Assay type: in vitro ADME
- measurement parameters: human, Caco-2, test compound 3 μM
Kindly supply the reported Papp at 2 h, 3 µM values for the records listed here.
Answers are plain numbers, in ×10⁻⁶ cm/s.

Report Papp at 2 h, 3 µM for each item below.
1. CC(C)Nc1cc(-n2ncc3cc(C#N)cnc32)ncc1-c1cn(CCc2ccccc2)nn1
2. CC(C)Nc1cc(-n2ncc3cc(C#N)cnc32)ncc1-c1cn([C@@H]2CCN(S(C)(=O)=O)C[C@H]2F)nn1 (single isomer, unassigned)
3. CC(C)Nc1cc(-n2ncc3cc(C#N)cnc32)ncc1-c1cn(C2CN(CC(F)F)C2)nn1

result:
[7.2, 4.3, 17.9]

###

IRAK4 (Homo sapiens (Human), UniProt Q9NWZ3) measurements of IC50, listed per entry.
Sequence (Q9NWZ3 whole entry, species assumed): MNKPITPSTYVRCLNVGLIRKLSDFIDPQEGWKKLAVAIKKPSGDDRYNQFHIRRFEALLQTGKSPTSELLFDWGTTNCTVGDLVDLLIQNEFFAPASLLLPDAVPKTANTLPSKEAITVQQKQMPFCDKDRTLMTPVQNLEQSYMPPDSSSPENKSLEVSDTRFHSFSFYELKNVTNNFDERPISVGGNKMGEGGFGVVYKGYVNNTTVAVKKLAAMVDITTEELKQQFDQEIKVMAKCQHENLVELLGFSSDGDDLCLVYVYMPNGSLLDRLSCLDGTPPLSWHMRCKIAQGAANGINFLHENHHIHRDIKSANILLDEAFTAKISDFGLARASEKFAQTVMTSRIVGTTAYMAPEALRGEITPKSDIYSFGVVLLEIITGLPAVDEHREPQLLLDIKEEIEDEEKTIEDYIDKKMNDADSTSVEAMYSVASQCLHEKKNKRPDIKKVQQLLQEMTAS
Reply with the number, then its unit.

Answered examples (4):
COCc1cn(-c2cnc(-n3ncc4cc(C#N)cnc43)cc2NC(C)C)nn1 [Example 267] : 83 nM
CC(=O)N1CCC(n2cc(-c3cnc(-n4ncc5cc(C#N)cnc54)cc3NC(C)C)nn2)CC1 [Example 159] : 4 nM
CC(C)(O)CCc1cn(-c2cnc(-n3ncc4cc(C#N)cnc43)cc2NC(C)(C)CO)nn1 [Example 381] : 2 nM
CC(C)Nc1cc(-n2ncc3cc(C#N)cnc32)ncc1-c1cn([C@H]2CCCC[C@H]2O)nn1 [Example 216] : 2 nM

Report IC50 for each item below.
1. CC(C)Nc1cc(-n2ncc3cc(C#N)cnc32)ncc1-c1cc(C2COCCN2)no1 (single isomer, unassigned) [Example 400, Isomer 1]
2. CC(C)Nc1cc(-n2ncc3cc(C#N)cnc32)ncc1-c1cn(CC(=O)N2CCOCC2)nn1 [Example 101]
3. CC(=O)NC1CCC(c2cn(-c3cnc(-n4ncc5cc(C#N)cnc54)cc3NC(C)C)nn2)CC1 (stereo not drawn) [Example 341]
4. CC(C)Nc1cc(-n2ncc3cc(C#N)cnc32)ncc1-c1cn([C@@H]2CCCC[C@@]2(C)O)nn1 (relative stereo) [Example 64]
5. CCNc1cc(-n2ncc3cc(C#N)cnc32)ncc1-n1cc(CCC(C)(C)O)nn1 [Example 369]
6. COC(=O)N1CCC(c2cn(-c3cnc(-n4ncc5cc(C#N)cnc54)cc3NC(C)C)nn2)CC1 [Example 338]

result:
1. 3 nM
2. 5 nM
3. 3 nM
4. 5 nM
5. 7 nM
6. 6 nM

Report IC50 for each item below.
1. CCn1cc(-c2cnc(-n3ncc4cc(Cl)cnc43)cc2NC(C)C)nn1 [Example 39]
2. CC(=O)N(C)CCCc1cc(-c2cnc(-n3ncc4cc(C#N)cnc43)cc2NC(C)C)on1 [Example 415]
3. CC(C)Nc1cc(-n2ncc3cc(C#N)cnc32)ncc1-n1cc(-c2ccccn2)cn1 [Example 245]
4. CNC(=O)Cn1cnc(-c2cnc(-n3ncc4cc(C#N)cnc43)cc2NC(C)C)c1 [Example 238]

result:
["14 nM", "3 nM", "334 nM", "36 nM"]

Values from patent US10294229B2
